Across several studies, compounds have been characterized by their pKi on Carbonic anhydrase 2 (Homo sapiens, UniProt P00918); a selection follows.
pKi: −log10 of the molar value.
metric_name: pKi

[[record]]
compound = "Nc1ccccc1C(=O)N1CCN(C(=O)c2ccc(S(N)(=O)=O)cc2)CC1"
measurement_qualifier = "="
experimental_result = 8.39

[[record]]
compound = "COc1ccccc1-c1noc(-c2ccc(S(N)(=O)=O)cc2)n1"
measurement_qualifier = "="
experimental_result = 9.29

[[record]]
compound = "Nc1ccc(S(=O)(=O)Nc2nnc(S(N)(=O)=O)s2)cc1I"
measurement_qualifier = "="
experimental_result = 9.22

[[record]]
compound = "CCCC(CCC)C(=O)Oc1ccc2nc(S(N)(=O)=O)sc2c1"
measurement_qualifier = "="
experimental_result = 8.15

[[record]]
compound = "O=C1C=CC[C@H](C[C@H](F)CCc2ccc(O)cc2)O1"
measurement_qualifier = "="
experimental_result = 4.43

[[record]]
compound = "N=C(N)Nc1ccc(O)cc1"
measurement_qualifier = "="
experimental_result = 5.12

[[record]]
compound = "NS(=O)(=O)c1ccc(Nc2cc(-c3ccccc3)nc(SCC(=O)c3ccc(Br)cc3)n2)cc1"
measurement_qualifier = "<"
experimental_result = 4.70

[[record]]
compound = "CC(C)(C)OC(=O)NS(=O)(=O)NCc1ccccc1"
measurement_qualifier = "="
experimental_result = 3.79

[[record]]
compound = "COCCOCCN(CCOC)CCC1CNc2cc(S(N)(=O)=O)sc2S1(=O)=O (stereo unspecified)"
measurement_qualifier = "="
experimental_result = 8.38

[[record]]
compound = "CCOc1ccc(S(=O)(=O)NC[C@@H](C)O)cc1-c1nnc2c(n1)c(C)nn2-c1ccc(C)cc1"
measurement_qualifier = "<"
experimental_result = 4.30

[[record]]
compound = "NS(=O)(=O)c1ccc(N/C(S)=N\\CCC(=O)O)cc1"
measurement_qualifier = "="
experimental_result = 7.96


---

Across several studies, compounds have been characterized by their Ki on UniProt:P00918; a selection follows.
metric_name: Ki (nM)

[[record]]
structure_as_smiles = "NS(=O)(=O)c1ccc(CCNC(=O)Nc2c(F)c(F)c(F)c(F)c2F)cc1"
metric_name = "Ki"
measurement_qualifier = "="
experimental_result = 15

[[record]]
structure_as_smiles = "Oc1cc(O)c2c(c1)O[C@H](c1ccc(O)c(O)c1)[C@@H](O)C2"
metric_name = "Ki"
measurement_qualifier = "="
experimental_result = 1840

[[record]]
structure_as_smiles = "CCCCN(CC)C(=O)S"
metric_name = "Ki"
measurement_qualifier = ">"
experimental_result = 2000

[[record]]
structure_as_smiles = "Cc1c2c(=O)oc3ccccc3c2nn1-c1ccccc1"
metric_name = "Ki"
measurement_qualifier = ">"
experimental_result = 10000

[[record]]
structure_as_smiles = "COc1ccc(C(=O)Nc2ccc(-c3cn4c(=O)n(-c5ccccc5)nc4c(N)n3)cc2)cc1"
metric_name = "Ki"
measurement_qualifier = ">"
experimental_result = 100000

[[record]]
structure_as_smiles = "O=C(NO)[C@H]1C[C@@H](NS(=O)(=O)c2ccc(-c3ccccc3)cc2)CN1S(=O)(=O)c1ccc(Cl)c(Cl)c1"
metric_name = "Ki"
measurement_qualifier = "="
experimental_result = 24800

[[record]]
structure_as_smiles = "NS(=O)(=O)c1ccc(-n2nc(-c3ccccc3O)ccc2=O)cc1"
metric_name = "Ki"
measurement_qualifier = "="
experimental_result = 0.62

[[record]]
structure_as_smiles = "NS(=O)(=O)c1ccc(/N=C(S)/N=C2/C=CC(=C3c4ccc(O)cc4Oc4cc(O)ccc43)C(C(=O)O)=C2)c(Br)c1"
metric_name = "Ki"
measurement_qualifier = "="
experimental_result = 43

[[record]]
structure_as_smiles = "S=c1ccc2ccccc2o1"
metric_name = "Ki"
measurement_qualifier = ">"
experimental_result = 100000

[[record]]
structure_as_smiles = "CCCCN(CCCC)S(=O)(=O)N(CCCC)CCCC"
metric_name = "Ki"
measurement_qualifier = ">"
experimental_result = 200000


---

pKi: −log10 of the molar value.
Across several studies, compounds have been characterized by their pKi on Carbonic anhydrase 2 (Homo sapiens, UniProt P00918); a selection follows.
metric_name: pKi

[[record]]
compound = "NS(=O)(=O)c1ccc(C(=O)N2CCN(C(=O)c3cccc(Br)c3)CC2)cc1"
measurement_qualifier = "="
experimental_result = 9.22

[[record]]
compound = "CC(=O)N1N=C(c2cccc(OS(N)(=O)=O)c2)CC1c1c(Cl)cccc1Cl (centres undefined)"
measurement_qualifier = "="
experimental_result = 6.65

[[record]]
compound = "NC(=S)NNC(=O)c1ccccc1O"
measurement_qualifier = "<"
experimental_result = 5.00

[[record]]
compound = "COCCN(CCOC)CCC1CNc2cc(S(N)(=O)=O)sc2S1(=O)=O (centres undefined)"
measurement_qualifier = "="
experimental_result = 9.01

[[record]]
compound = "COc1ccc2nc(-c3ccccc3)cc(C(=O)Nc3ccc4c(c3)c(S(N)(=O)=O)cn4C)c2c1"
measurement_qualifier = "<"
experimental_result = 4.00

[[record]]
compound = "O=C(NO)[C@H]1C[C@H](n2cc(-c3ccccc3)nn2)CN1S(=O)(=O)c1ccc(Cl)c(Cl)c1"
measurement_qualifier = "<"
experimental_result = 4.00

[[record]]
compound = "CN(C)c1ccc2c(-c3ccc(NC(=S)NCc4cn(-c5cccc(S(N)(=O)=O)c5)nn4)cc3C(=O)O)c3ccc(=[N+](C)C)cc-3oc2c1"
measurement_qualifier = "="
experimental_result = 7.06

[[record]]
compound = "NS(=O)(=O)c1ccc2nc(NC(=O)CSC(=S)N3CCN(C(c4ccccc4)c4ccccc4)CC3)sc2c1"
measurement_qualifier = "="
experimental_result = 6.02

[[record]]
compound = "Cc1ccc(NS(N)(=O)=O)cc1"
measurement_qualifier = "="
experimental_result = 7.89

[[record]]
compound = "O=S(=O)(NO)c1ccc(Br)cc1"
measurement_qualifier = "="
experimental_result = 7.74

[[record]]
compound = "NS(=O)(=O)c1ccc(NC(=S)NC(CCC(=O)O)C(=O)O)cc1 (centres undefined)"
measurement_qualifier = "="
experimental_result = 8.00

[[record]]
compound = "CCN(CC)CC(=O)N(CCc1ccc(S(N)(=O)=O)cc1)Cc1ccccc1"
measurement_qualifier = "="
experimental_result = 8.08

[[record]]
compound = "C[C@@H](O)[C@H](NC(=O)c1ccc(S(N)(=O)=O)cc1)C(=O)O"
measurement_qualifier = "="
experimental_result = 6.94

[[record]]
compound = "NS(=O)(=O)c1cc(C(=O)NCC(=O)O)ccc1Cl"
measurement_qualifier = "="
experimental_result = 6.35

[[record]]
compound = "NS(=O)(=O)c1ccc(NC(=S)N[C@@H]2O[C@H](CO)[C@@H](O[C@H]3O[C@H](CO)[C@@H](O)[C@H](O)[C@H]3O)[C@H](O)[C@H]2O)cc1"
measurement_qualifier = "="
experimental_result = 8.12

[[record]]
compound = "CCC(CC)C(=O)NCCc1ccc(S(N)(=O)=O)cc1"
measurement_qualifier = "="
experimental_result = 7.47

[[record]]
compound = "CCCCCCCC/C=C\\CCCCCCCCNC(=O)CCN(CCc1ccccc1)CC(=O)N(CCc1ccc(S(N)(=O)=O)cc1)Cc1ccco1"
measurement_qualifier = "="
experimental_result = 6.88

[[record]]
compound = "C[C@H](CCC(=O)Nc1cccc(S(N)(=O)=O)c1)[C@H]1CC[C@H]2[C@@H]3CC[C@@H]4C[C@H](O)CC[C@]4(C)[C@H]3CC[C@]12C"
measurement_qualifier = "="
experimental_result = 6.68

[[record]]
compound = "O=C(NS(=O)(=O)O)NS(=O)(=O)c1ccc(F)cc1"
measurement_qualifier = "="
experimental_result = 6.05


---

Across several studies, molecules have been characterized by their log10 of Ki on Carbonic anhydrase 2 (Homo sapiens, UniProt P00918); a selection follows.
metric_name: log10 of Ki (log10 of the value in nM)

[[record]]
molecule = "COc1ccc(Cc2ccc(OC)c(OC)c2)cc1OC"
target_under_test = "Carbonic anhydrase 2 (Homo sapiens, UniProt P00918)"
experimental_result = 4.77

[[record]]
molecule = "COc1ccc(S(=O)(=O)NC(C(=O)NO)C(C)C)cc1 (centres undefined)"
target_under_test = "Carbonic anhydrase 2 (Homo sapiens, UniProt P00918)"
experimental_result = 1.59

[[record]]
molecule = "C[C@H](CCC(=O)OCc1ccc(S(N)(=O)=O)cc1)[C@H]1CC[C@H]2[C@@H]3CC[C@@H]4C[C@H](O)CC[C@]4(C)[C@H]3C[C@H](O)[C@]12C"
target_under_test = "Carbonic anhydrase 2 (Homo sapiens, UniProt P00918)"
experimental_result = 2.03

[[record]]
molecule = "O=S(=O)(NO)c1ccc(F)cc1"
target_under_test = "Carbonic anhydrase 2 (Homo sapiens, UniProt P00918)"
experimental_result = 1.28

[[record]]
molecule = "C/C(=N\\NC(N)=O)c1nnn(-c2ccc(S(N)(=O)=O)cc2)c1C"
target_under_test = "Carbonic anhydrase 2 (Homo sapiens, UniProt P00918)"
experimental_result = 1.21

[[record]]
molecule = "NS(=O)(=O)c1ccc(NC(=S)N[C@@H]2O[C@H](CO)[C@@H](O[C@@H]3O[C@H](CO)[C@H](O)[C@H](O)[C@H]3O)[C@H](O)[C@H]2O)cc1"
target_under_test = "Carbonic anhydrase 2 (Homo sapiens, UniProt P00918)"
experimental_result = 0.84

[[record]]
molecule = "CCN1CCN(C(=S)SCC(=O)Nc2nc3ccc(S(N)(=O)=O)cc3s2)CC1"
target_under_test = "Carbonic anhydrase 2 (Homo sapiens, UniProt P00918)"
experimental_result = 0.40

[[record]]
molecule = "O=S(=O)(NCc1ccccc1)NCc1ccccc1"
target_under_test = "Carbonic anhydrase 2 (Homo sapiens, UniProt P00918)"
experimental_result = 2.81

